system: Plasmodium falciparum; assay: GSK_TCMDC: Inhibition of Plasmodium falciparum 3D7 in whole red blood cells, using parasite LDH activity as an index of growth. Test compounds present at 2uM; assay type: functional
READOUT LABEL: Inhibition (%)
Please state the figure in %; there is no need to write the unit.

Inhibition lookup needed for "Cc1cccc2nc(-c3ccc(-c4cccc(CNCCCN5CCCC5=O)c4)cc3)[nH]c12.O=C(O)C(F)(F)F" , thanks.
96

Tell me the measured Inhibition of "COc1ccc(C)c(Nc2ccnc(Nc3cccc(-c4nc5ccccc5[nH]4)c3)n2)c1.Cl" , please.
98

Query: Inhibition; subject: CCOC(=O)C1=C(C)NC2=C(C(=O)CC(C)(C)C2)C1c1ccc(Br)cc1 (stereo not drawn)
90

====

Provide the reported Inhibition of each item.
test system: Plasmodium falciparum; test: GSK_TCMDC: Inhibition of Plasmodium falciparum 3D7 in whole red blood cells, using parasite LDH activity as an index of growth. Test compounds present at 2uM; assay type: functional
Report the figure in % without appending any unit label.

Query for Plasmodium falciparum: what Inhibition does the record show for "Cc1nc(C)c(CC(=O)Nc2cccc(-c3cccc(-c4nc5cc(C(F)(F)F)ccc5[nH]4)c3)c2)s1" ?
95

Please tell me: Inhibition of "COc1ccc(C(=O)COc2cccc(/C=C/C(=O)O)c2)cc1OC" , system Plasmodium falciparum?
84

Given the entry CC(CN(C)C)C(=O)Nc1ccc(-c2ccc(-c3nc4cc(F)ccc4[nH]3)cc2)cc1 (centres undefined) , what Inhibition was observed with Plasmodium falciparum?
100

Param readout= Inhibition; system= Plasmodium falciparum; entry= "C#CCOc1ccc(N2C(N)=NC(N)=NC2(C)C)cc1.Cl" ; returns value.
94

Quick check: Inhibition on Plasmodium falciparum, item "COc1ccc2nccc([C@@H](O)CN3CCC(NC(=O)/C=C/c4ccc5[nH]c(=O)ccc5c4)CC3)c2c1" ?
96

Give Plasmodium falciparum Inhibition for "O=C(Nc1ccc(Cl)c(Cl)c1)N1CCC(CNCc2cccc([N+](=O)[O-])c2)CC1.O=C(O)C(F)(F)F"
98

# returns recorded Inhibition (system: Plasmodium falciparum) for "COc1ccc(-c2csc(NC(=O)CCC(=O)O)n2)cc1OC"
94

Param readout = Inhibition; param system = Plasmodium falciparum; param query = "CCc1ccc(O)c(-c2cc(C(=O)Nc3ccc(OC)c(Cl)c3)[nH]n2)c1" ; response: value
93

For the record "CC(C)CNCc1ccc(-c2ccc(CN(CCCN3CCN(C)CC3)C(=O)/C=C/c3ccccc3)cc2)cc1.O=C(O)C(F)(F)F" , what value of Inhibition is listed for Plasmodium falciparum?
99

====

Provide the recorded Inhibition for the entries that follow.
test system: Plasmodium falciparum; experiment: GSK_TCMDC: Inhibition of Plasmodium falciparum Dd2 in whole red blood cells, using parasite LDH activity as an index of growth. Test compounds present at 2uM; format: functional

Give its Inhibition value. Item: "CCc1nc(N)nc(N)c1-c1cccc(Cl)c1"
1%

Dear colleague, I am looking for the recorded Inhibition of the following compound: "Cc1cccc2nc(-c3ccc(-c4cccc(NC(=O)NCc5cccc(F)c5)c4)s3)[nH]c12"
8%

Look up Inhibition for this compound: "O=C(Nc1ccc(OC2CCN(Cc3ccc(F)cc3)CC2)cc1)c1cccs1.O=C(O)C(F)(F)F"
52%

Which Inhibition value is on record for CCCCCC(C)C(C)c1cc(O)c2c(c1)OC(C)(C)CC2c1cc[n+]([O-])cc1 (centres undefined) ?
7%

====

tested on: HepG2; assay: GSK_TCMDC: Percent inhibition of human HepG2 cell line. Test compounds present at 10uM.; format: functional
Note to self: Inhibition under 20% means YES, ties and anything higher get NO.

Here's an entry: "COc1cccc(Nc2nc(Nc3cccc(C#N)c3)cc(C(F)(F)F)n2)c1" . Is its Inhibition below 20%?
YES

Is 20% strictly greater than the compound's reported Inhibition? compound: "CN1CCN(c2nsc3ccc(-c4ccc(OCCN5CCCC5)cc4)cc23)CC1.O=C(O)C(F)(F)F"
NO

Is it true that Inhibition reported for "CC(C)COc1ccc2ccccc2c1CNCCCCCCNCc1c(OCC(C)C)ccc2ccccc12.CS(=O)(=O)O" is less than 20%?
NO

Please let me know if "C=CCc1cccc(CN2CCC(c3cc(O)nc(-c4ccccn4)n3)CC2)c1O" shows Inhibition below 20%.
NO

Dear reviewer, please state whether "CCN(CC)CCCN(C(=O)Nc1ccc(C#N)cc1)c1nc(-c2ccc(F)cc2)cs1" has Inhibition strictly beneath 20%.
NO

Report whether reported Inhibition is lower than 20% (strictly) for COc1ccccc1C(=O)C1CCCN(C(=O)c2ccccc2C(F)(F)F)C1 (stereo not given)
YES

Input "CN1CCN(c2cc(NC(=O)Nc3cccc(Cl)c3Cl)ccc2Cl)CC1.Cl" ; condition: Inhibition strictly below 20%. Does it hold?
YES

Determine whether this compound shows Inhibition lower than 20% (ties excluded): "Cc1cc(NC(=O)Nc2cccc(N(C)C)c2)c2ccccc2n1"
YES

Inhibition strictly < 20% for this compound? "CCCc1cc(Cc2cnc(N)nc2N)ccc1OCCCCCC(=O)O.Cl"
YES

Determine whether this compound shows Inhibition lower than 20% (ties excluded): "c1ccc(COc2ccc(C3CCCCC3)cc2)nc1"
YES

In the record for COc1ccc(CC(Cc2ccc(OC)cc2)NCC(O)c2cccc(Cl)c2)cc1 (stereo not given) , is Inhibition less than 20%?
YES

Criterion: Inhibition strictly below 20%. Is it met by "CCN1CCN(c2cc(C)c3cc(NC(=O)c4ccc(OC)c(OC)c4)ccc3n2)CC1" ?
NO

Please indicate whether the reported Inhibition of "COc1ccc2nccc([C@@H](O)CN3CCC(NCc4cc5ccccc5cn4)CC3)c2n1.O=C(O)C(=O)O" is strictly below 20%.
YES

Report whether reported Inhibition is lower than 20% (strictly) for COc1cccc(NC(=O)c2ccc(NCCCN3CC(C)CC(C)C3)c([N+](=O)[O-])c2)c1 (stereo not given)
YES

Report whether reported Inhibition is lower than 20% (strictly) for "CCOc1c(OC)ccc2c1CCN(CCN1CCC(NC(=O)c3ccc(-c4cccc(C(F)(F)F)c4C(F)(F)F)cc3)CC1)C2"
NO

Does the reported Inhibition of "N#Cc1cccc(CN2CCCN(Cc3ccc(C(=O)Nc4ccc(Cl)cc4)cc3)CC2)c1.O=C(O)C(F)(F)F" stay below 20%?
NO

Below 20% on Inhibition? Entry "O=C(NC1CCN(Cc2ccccc2)CC1)c1ccc(-c2nc3cc(F)c(F)cc3[nH]2)s1"
YES

Just wondering, is Inhibition of "COc1cc(C(=O)NCCCN2CCN(c3cc(Cl)ccc3OC)CC2)ccc1-c1nc2cc(Cl)c(Cl)cc2[nH]1" below 20%?
YES

I wonder whether "Clc1ccc(OCc2ccccc2)c(-c2nc(-c3nc4ncc(Br)cc4[nH]3)cs2)c1" has Inhibition below 20%. Can you tell?
YES

Strictly below 20%: is that where Inhibition of "O=C(/C=C/c1ccc(Cl)c(Cl)c1)N1CCC(CCN2CCc3[nH]c4ccccc4c3C2)CC1.O=C(O)C(F)(F)F" sits?
NO

Consider "O=C(O)C(F)(F)F.c1ccc(CN2CCC(NCc3ccccc3-c3cccc(CNC4CCCC4)c3)CC2)cc1" . Does its Inhibition lie strictly below 20%?
NO

Could you please tell me whether Inhibition recorded for "Cc1cccc2nc(-c3cccc(-c4cccc(CN5CCN(c6ccc(C#N)cn6)CC5)c4)c3)[nH]c12.O=C(O)C(F)(F)F" is less than 20%?
YES

# strict comparison: is reported Inhibition < 20%? input = N#Cc1cncc(-c2nc3c(N4CCC(Cc5ccccc5)CC4)cccc3n2C2CCNC2)c1.O=C(O)C(F)(F)F (stereo not given)
YES

State whether 20% exceeds Inhibition recorded for "Cc1c(CC(=O)N(C)C2CCN(CCCCCNC(=O)/C=C/c3ccc(Cl)c(Cl)c3)CC2)sc2ccc(Cl)cc12" .
NO

Is Inhibition of "Cc1cc(C2CCN(CCCCNC(=O)c3ccc(-c4ccc(C(F)(F)F)cc4)cc3)CC2)c(C)cc1OCCO" strictly below 20%?
NO

Hello, is Inhibition of the following compound strictly smaller than 20%? "Cc1noc(C)c1-c1ccc2c(Nc3ccccc3C(C)(C)C)c(C(=O)NCc3ccc4c(c3)OCO4)cnc2c1.Cl"
NO

Quick check: Inhibition of "COc1ccc(CNC2CCN(C)CC2)cc1-c1ccc(S(=O)(=O)NC2CCC2)cc1.O=C(O)C(F)(F)F" under 20%?
NO

Threshold test, Inhibition < 20%: CNC(=O)C1Cc2c([nH]c3c(C)cccc23)C2(N1)C(=O)Nc1ccc(OC(F)(F)F)cc12 (stereo not given)
YES

# TODO verify Inhibition < 20% strictly for this compound: "CN1CCC(NCc2cccc(-c3nn(C)c4nc(NC5CCCC5)ncc34)c2)CC1"
YES

Here's an entry: "COc1ccc2ncc(F)c([C@H](O)CN3CCC(NCc4ccc5c(c4)NC(=O)CO5)CC3)c2c1.Cl" . Is its Inhibition below 20%?
YES
